Provide the recorded ELISA OD for the entries that follow.
# target.or.system: T1, recombinant human MCP-4 (human, UniProt Q99616 24-98, limits assumed)
# T1 construct: also called rhMCP-4
# T1 sequence (Q99616 24-98 limits assumed): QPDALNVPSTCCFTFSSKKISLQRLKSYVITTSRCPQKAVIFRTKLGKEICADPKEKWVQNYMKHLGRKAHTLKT
# test.protocol: ELISA, coated antigen
Please reply with the bare figure in OD450 and do not write the unit itself.

Find the recorded ELISA OD belonging to anti-MCP-1 mAb 3.10.1 (antibody, V domains shown) VH: QVQLVQSGAEVKKPGASVKVSCKVSGYTLTELSMHWVRQAPGKGLEWMGGFDPEDGETIYAQKFQGRVMMTEDTSTDTAFMDLSSLRSEDTAVYYCATDDMLTPHYLYFGMDVWGQGTTVTVSS VL: DIQMTQSPSSLSASVGDRVTITCRASQGIRNDLGWYQQKPGKAPKRLIYATSSLQSGVPSRFSGSGSGTEFTLTISSLQPEDFATYYCLQHNTYPFTFGPGTKVDIKR and report it.
0.042

Requested field: ELISA OD. Item: anti-MCP-1 mAb 3.11.1 (antibody, human IgG4, kappa, V domains shown) VH: QVQLQESGPGLVKPSQTLSLTCTVSGGSISSGGNYWNWIRQHPGKGLEWIGYIYYSGNTYYNPSLKSRITISIDTSKNQFSLTLSSVTAADTAVYYCARDGGDDAFDIWGQGTMVTVSS VL: DIQMTQSPSSLSASVGDRVTITCQASQDISNYLNWYQQKPGKAPKLLIYDASNLETGVPSRFSGSGSGTDFTFTINSLQPEDIATYYCQEYNNLPYSFGQGTKLEIKR
0.981

Where do the numbers come from? From patent US20050058639A1.
